Task for the reader: assign each of the following sequences its reported phosphorylation enrichment.
# TARGET_OF_ASSAY: Fes (UniProt P07332)
# Sequence (P07332 whole entry, looked up): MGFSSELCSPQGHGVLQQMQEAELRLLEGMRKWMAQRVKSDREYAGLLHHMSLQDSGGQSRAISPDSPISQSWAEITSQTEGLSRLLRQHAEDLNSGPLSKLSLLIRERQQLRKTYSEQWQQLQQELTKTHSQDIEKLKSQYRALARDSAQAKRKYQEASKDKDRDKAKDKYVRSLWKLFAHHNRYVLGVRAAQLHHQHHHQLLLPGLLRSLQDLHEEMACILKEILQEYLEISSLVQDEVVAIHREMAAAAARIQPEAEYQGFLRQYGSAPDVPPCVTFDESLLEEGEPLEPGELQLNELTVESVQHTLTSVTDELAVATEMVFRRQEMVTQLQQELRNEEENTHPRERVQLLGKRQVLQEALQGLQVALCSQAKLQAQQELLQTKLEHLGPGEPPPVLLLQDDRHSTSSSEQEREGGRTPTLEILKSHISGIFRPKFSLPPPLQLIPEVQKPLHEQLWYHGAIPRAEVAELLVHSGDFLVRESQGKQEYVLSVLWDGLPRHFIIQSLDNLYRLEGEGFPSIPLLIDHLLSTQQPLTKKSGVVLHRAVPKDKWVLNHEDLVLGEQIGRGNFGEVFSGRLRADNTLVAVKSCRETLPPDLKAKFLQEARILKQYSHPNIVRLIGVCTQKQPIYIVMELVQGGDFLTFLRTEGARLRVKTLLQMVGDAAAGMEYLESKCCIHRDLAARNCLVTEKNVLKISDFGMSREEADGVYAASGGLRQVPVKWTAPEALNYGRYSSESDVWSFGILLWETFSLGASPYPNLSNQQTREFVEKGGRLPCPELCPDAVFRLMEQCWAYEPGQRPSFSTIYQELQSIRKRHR
# TEST_NAME: phosphorylation enrichment, bacterial display (enrichment ratio); higher = better substrate or ligand; peptides without Tyr show the background
Give bare numbers.

SEQUENCE	phosphorylation enrichment
PGLRGYPGLSG [COL4A2_Y306]	0.87
RLLREYQELMN [KRT75_Y434]	0.817
EEGNPYYSSAR [MCCC2_Y520]	0.845
LENSTYQYIHV [CRB1_Y760_R764H]	1.68
KDHPDYKYQAR [SOX10_Y171_P175A]	0.696

# map each sequence to its phosphorylation enrichment
1. SRGHQYQELPR [KCNH2_Y1009_R1007H]
2. QEGPEYWDEET [HLA-A_Y83_Q86E]

0.672
1.88

I have 7 sequences here; please give me phosphorylation enrichment for each one.
1. FLTQHYDAEPQ [ANG_Y38_K41E]
2. KQNSLYSFSDH [CCDC82_Y331]
3. GLQDEYDFKCK [STAT1_Y170_D165G]
4. WHFTFYNELRV [ACTC1_Y93_H90Y_YF]
5. VGGRIYIDDAL [PKLR_Y218_G222A]
6. STEEQYRICQV [EFHC1_Y115_R118C]
7. DAVAVYDGKIS [SH2D1A_Y7_H8D]

[0.989, 0.907, 1.12, 1.5, 1.06, 1.53, 0.988]

====

# TARGET_OF_ASSAY: Fes (UniProt P07332)
# TEST_NAME: phosphorylation enrichment, bacterial display (enrichment ratio); higher = better substrate or ligand; peptides without Tyr show the background
For each of the sequences below, state its phosphorylation enrichment.
Give bare numbers.

SEQUENCE	TARGET_OF_ASSAY	phosphorylation enrichment
GYDHSYYFIAT [ESD_Y262]	Fes (UniProt P07332)	1.22

Working through the 7 sequences below one at a time, give phosphorylation enrichment for each.
1. MIAIRYSHSRR [ACOXL_Y260_T255M]
2. SHTPSYCDEWL [RITA1_Y109_S113W]
3. EVASVYESFQP [MAVS_Y92_Q93E_YF]
4. FYNSEYGELSE [FLT4_Y1337]
5. VQVAFYTVMMN [SPATA17_Y84_M86V_YF]
6. KKYPDYIQSAM [SGMS2_Y59_I62S]
7. FRQNGYIPGSN [PCDHGA1_Y895_V894G_YF]

1. 0.487
2. 1.12
3. 1.31
4. 1.36
5. 1.44
6. 0.772
7. 0.548

====

# TARGET_OF_ASSAY: Grb2 SH2 (UniProt P62993)
# Sequence (P62993 whole entry, looked up): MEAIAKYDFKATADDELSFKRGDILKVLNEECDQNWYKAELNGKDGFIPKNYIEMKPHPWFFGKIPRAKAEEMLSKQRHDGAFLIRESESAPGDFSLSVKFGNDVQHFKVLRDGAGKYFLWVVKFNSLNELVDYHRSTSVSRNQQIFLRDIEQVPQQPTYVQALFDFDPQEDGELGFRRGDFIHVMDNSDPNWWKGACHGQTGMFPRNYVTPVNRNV
# TEST_NAME: SH2 binding enrichment of the phosphorylated peptide, bacterial display (enrichment ratio); higher = better substrate or ligand; peptides without Tyr show the background
If the reported SH2 binding enrichment equals or exceeds 0.8, assign true. If not, assign false.

These recorded examples may help you get a feel for the data.
SEQUENCE	CATEGORY
TGDFGYRAPGF [TNS2_Y668_YF]	true
FQHLRYIKQLG [SAMHD1_Y146_R143H]	false
DGMADCSDPSF [CDC5L_Y459_Y459C_YF]	true
GGYNNYGYGND [HNRNPH3_Y159]	true
GFSRHYEDGFP [CTNND1_Y217_YF]	false
FADIAYNFRHA [PAH_Y166_G171A_YF]	true
CRPPFYHRNCM [HGD_Y334_F329C_YF]	true
CTTIHCNYMCN [TP53_Y234_Y234C]	false
HEVHIYENSGA [ARPC1B_Y35_K37N]	true
CEQELYSQLVY [WAS_Y102_W97C]	false

Is reported SH2 binding enrichment greater than or equal to 0.8 here: EVKEAYMGNVL [ACAT1_Y90]
true

Is SH2 binding enrichment for TGGLEYIVPLM [CLCN4_Y548] at or above 0.8?
true

Textbook exercise: given the entry TQNAVYSAANF [DDX5_Y535_G533A_YF] , state whether its SH2 binding enrichment is greater than or equal to 0.8.
true
